TARGET: T1, human angiopoietin-2 protein (human, UniProt O15123 19-496)
T1 construct: bought; also called Ang-2; Ang2
T1 sequence (looked up): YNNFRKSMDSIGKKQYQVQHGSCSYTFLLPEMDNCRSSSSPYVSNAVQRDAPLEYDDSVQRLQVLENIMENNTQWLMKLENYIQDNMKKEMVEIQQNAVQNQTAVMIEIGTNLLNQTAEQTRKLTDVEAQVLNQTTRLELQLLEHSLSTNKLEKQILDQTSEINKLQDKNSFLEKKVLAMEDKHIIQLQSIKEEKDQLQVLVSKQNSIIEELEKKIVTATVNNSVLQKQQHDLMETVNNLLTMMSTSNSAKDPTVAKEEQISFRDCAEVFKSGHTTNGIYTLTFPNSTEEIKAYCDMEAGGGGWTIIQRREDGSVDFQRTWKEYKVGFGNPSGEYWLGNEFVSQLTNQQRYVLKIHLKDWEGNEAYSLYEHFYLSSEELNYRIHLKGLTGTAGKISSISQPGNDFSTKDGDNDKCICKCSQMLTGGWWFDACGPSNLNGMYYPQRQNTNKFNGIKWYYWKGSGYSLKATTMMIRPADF
METHOD SUMMARY: competitive ELISA, coated Ang-2, 0.25 nM hTie-2-Fc; T form
Non-standard residues stand in square brackets, D forms with d. Phe(4-NO2) = N[C@@H](Cc1ccc([N+](=O)[O-])cc1)C(=O)O; 0P linker = not defined here; acyl = not defined here
Decide using IC50 alone. Strictly below 200 nM: true (1). Equal to or above 200 nM: false (0).

acyl-QK(Ac)YQPLDEK(Ac)DK(0P linker)TL[Phe(4-NO2)]DQFMLQQG-NH2 (reading uncertain; also: printed as Q(AcK)Y QPL DE(AcK) DK(0P)T L(NO2F)D QFM LQQ G) [Compound 48 (T): targeting peptide plus 0P linker]    true (1)
QXYQPLDEXDXTLYDQFMLQQG (not fully specified; N-term acyl cap; C-term NH2 cap; AcK at 2; 0P linker on K9; AcK at 11) [Compound 30 (T): targeting peptide plus 0P linker]    false (0)
QXYQPLDELDXTXYDQFMLQQG (not fully specified; N-term acyl cap; C-term NH2 cap; AcK at 2; 0P linker on K11; HL at 13) [Compound 42 (T): targeting peptide plus 0P linker]    false (0)
QXYQXLDELDXTLYDQFMLQQG (not fully specified; N-term acyl cap; C-term NH2 cap; AcK at 2; HP at 5; 0P linker on K11) [Compound 35 (T): targeting peptide plus 0P linker]    true (1)
XKYQPLDELDKTLYDQFMLQQG (not fully specified; 0P linker at the N-terminus (no acyl cap); C-term NH2 cap) [Compound 26 (T): targeting peptide plus 0P linker]    true (1)

Okay, next one:
Query: Just wondering, is IC50 of QXYQPLDELDXTLYDQFMLQQG (not fully specified; N-term acyl cap; C-term NH2 cap; NicK (nicotinyl lysine) at 2; 0P linker on K11, only one IC50 printed, standing in column T) [Compound 61 (T): targeting peptide plus 0P linker] below 200 nM?
Response: true (1)
